Data origin, for the record: the MegaScale stability set (Tsuboyama et al. 2023)

This section presents variants with their documented folding stability dG values.
B1: EEHEE_rd4_0763 (parent)
chain: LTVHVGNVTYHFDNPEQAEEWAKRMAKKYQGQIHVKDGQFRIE

Variants of: B1
test.protocol: folding stability dG (cDNA display proteolysis); higher = more stable
measurement.parameters: PBS, room temperature
Record the result as number plus unit.

Quick one: folding stability dG for M25S ?
0.407 kcal/mol

Can you check K27D next?
1.44 kcal/mol

// next record R41Q
1.66 kcal/mol

Param item: G38Q
0.9 kcal/mol

What about I42H ?
1.12 kcal/mol

Ok, now E43N
1.06 kcal/mol

Moving on to the next variant: V8H
1.72 kcal/mol

Now consider H34R and answer again.
1.55 kcal/mol

F40E , same question.
1.15 kcal/mol

Another variant to look at: Y10S
0.143 kcal/mol
